Source of measurements: the nanobody polyreactivity screen of Harvey et al. (2022)

protocolSummary: yeast display, Sf9 membrane polyspecificity reagent, FACS + sequencing; frameworks hold sequencing errors

{"columns": ["querySequence", "polyreactivity (PSR sort gate)"],
 "data": [
  ["QVQLVESGVGLVQAGGSLRLICAASGITFSGYDMVWYRQAPWKERELVAAISGSGTSTYYADSEKGRFTISRDKAKNTVYLQMNSLKPEDTAVYYCAARDAIFGSDYWGQGTQVTVSS", "high polyreactivity"],
  ["QVQLVESGGGLVQAGGSLRLICAASGSTFSQYTMGWYRQAPGKERELVAAITGSGGGTYYADSVKGRFTISRDNAKNTVYLHMESLKPVDTAVYYCAALTLNEKYTSRRGVYYWGQGSQVTVSS", "high polyreactivity"]
]}
